Give surfacepKa (Exp.) for every item shown.
Hey, just send me the number, nothing else.

Which value of surfacepKa (Exp.) has been reported for CCC[C@@H]1C[C@@H](C(=O)N[C@@H]([C@H]2O[C@H](SC)[C@H](O)[C@@H](O)[C@H]2O)[C@@H](C)O)N(C)C1 [lincomycin] in the records?
6.28

Which value of surfacepKa (Exp.) has been reported for COc1ccc(OC)c(C(O)CNC(=O)CN)c1 (stereo not shown) [midodrine] in the records?
6.18

Which value of surfacepKa (Exp.) has been reported for Cc1cc(-c2ccccc2)nnc1NCCN1CCOCC1 [minaprine] in the records?
5.75

Which value of surfacepKa (Exp.) has been reported for COc1cc2nc(N3CCN(C(=O)C4CCCO4)CC3)nc(N)c2cc1OC (stereo not shown) [terazosin] in the records?
6.17

###

Give bulkpKa (Exp.) for every item shown.
Hey, just send me the number, nothing else.

Which value of bulkpKa (Exp.) has been reported for COc1ccc(OC)c(C(O)CNC(=O)CN)c1 (stereo not shown) in the records?
6.65

Which value of bulkpKa (Exp.) has been reported for Cc1cc(-c2ccccc2)nnc1NCCN1CCOCC1 in the records?
6.75

Which value of bulkpKa (Exp.) has been reported for CCC[C@@H]1C[C@@H](C(=O)N[C@@H]([C@H]2O[C@H](SC)[C@H](O)[C@@H](O)[C@H]2O)[C@@H](C)O)N(C)C1 in the records?
7.54

Which value of bulkpKa (Exp.) has been reported for COc1cc2nc(N3CCN(C(=O)C4CCCO4)CC3)nc(N)c2cc1OC (stereo not shown) in the records?
6.65

###

Give surfacepKa (Exp.) for every item shown.
# condition_notes: esterIAM.PC C10/C3 column, 0.01 M PBS mobile phase, 12 pH points 4.05 to 8.06, monovalent equations
Hey, just send me the number, nothing else.

Which value of surfacepKa (Exp.) has been reported for CN(C)CCOC(C)(c1ccccc1)c1ccccn1 (stereo not shown) in the records?
6.72

Which value of surfacepKa (Exp.) has been reported for COc1cc2c(cc1OC)[C@@]13CCN4CC5=CCO[C@H]6CC(=O)N2[C@H]1[C@H]6[C@H]5C[C@H]43 in the records?
6.55

Which value of surfacepKa (Exp.) has been reported for CC1COc2c(N3CCN(C)CC3)c(F)cc3c(=O)c(C(=O)O)cn1c23 (stereo not shown) in the records?
7.32

Which value of surfacepKa (Exp.) has been reported for CC(=O)CC(c1ccccc1)c1c(O)c2ccccc2oc1=O (stereo not shown) in the records?
7

Which value of surfacepKa (Exp.) has been reported for CC[C@H]1[C@@H]2C[C@H]3[C@@H]4N(C)c5ccccc5[C@]45C[C@@H]([C@H]2[C@H]5O)N3[C@@H]1O in the records?
6.75

Which value of surfacepKa (Exp.) has been reported for COc1cc(NS(=O)(=O)c2ccc(N)cc2)nc(OC)n1 in the records?
7.64

Which value of surfacepKa (Exp.) has been reported for CCn1cc(C(=O)O)c(=O)c2ccc(C)nc21 in the records?
7.54

Which value of surfacepKa (Exp.) has been reported for C=C1CC[C@@]2(O)[C@H]3Cc4ccc(O)c5c4[C@@]2(CCN3CC2CC2)[C@H]1O5 in the records?
6.88

Which value of surfacepKa (Exp.) has been reported for C=CCN1CC[C@]23c4c5ccc(O)c4O[C@H]2C(=O)CC[C@@]3(O)[C@H]1C5 in the records?
6.24

Which value of surfacepKa (Exp.) has been reported for C=CCN1CC[C@]23c4c5ccc(O)c4O[C@H]2[C@@H](O)C=C[C@H]3[C@H]1C5 in the records?
6.04
